biological target: IMP-1 (Serratia marcescens); test: biochemical; format: biochemical; conditions: fluorescence assay with CCF2-FA substrate; read-out: IMP-1 IC50
Sequence (P52699 whole entry, looked up): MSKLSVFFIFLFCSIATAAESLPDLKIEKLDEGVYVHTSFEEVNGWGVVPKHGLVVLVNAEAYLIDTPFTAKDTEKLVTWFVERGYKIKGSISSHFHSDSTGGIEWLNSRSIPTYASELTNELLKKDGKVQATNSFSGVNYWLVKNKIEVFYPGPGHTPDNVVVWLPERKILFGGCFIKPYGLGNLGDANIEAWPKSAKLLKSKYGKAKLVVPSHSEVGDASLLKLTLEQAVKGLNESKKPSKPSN
assay_readout: pIC50
Remember the convention: pIC50 equals -log10 of concentration in molar.

[
  {
    "compound": "NS(=O)(=O)c1cncc(-c2ccc(CO)cc2)c1-c1nnn[nH]1",
    "pIC50": 6.15
  },
  {
    "compound": "NS(=O)(=O)c1cccc(-c2c[nH]c3nccnc23)c1-c1nn[nH]n1",
    "pIC50": 6.54
  },
  {
    "compound": "CC(C1CCN(c2ccnc(S(N)(=O)=O)c2-c2nnn[nH]2)CC1)N1CCOCC1 (stereo not drawn)",
    "pIC50": 5.88
  },
  {
    "compound": "NS(=O)(=O)c1nccc(NCc2ccccc2)c1-c1nnn[nH]1",
    "pIC50": 5.46
  },
  {
    "compound": "N=C(N)N1CCC(c2ccc(-c3cccc(S(N)(=O)=O)c3-c3nn[nH]n3)cc2)CC1",
    "pIC50": 7.74
  },
  {
    "compound": "CC1(c2ccc(-c3cccc(S(N)(=O)=O)c3-c3nn[nH]n3)cc2)SC(=O)NC1=O (stereo not drawn)",
    "pIC50": 8.00
  },
  {
    "compound": "NS(=O)(=O)c1c(C(F)(F)F)ccc([C@H]2CC[C@H](C3CCNCC3)CC2)c1-c1nnn[nH]1",
    "pIC50": 8.84
  },
  {
    "compound": "CS(=O)(=O)Nc1cccc(-c2ccnc(S(N)(=O)=O)c2-c2nn[nH]n2)c1",
    "pIC50": 7.62
  }
]

# evaluate next
"NS(=O)(=O)c1cccc(-c2ccc(C3(C(F)(F)F)OCCO3)nc2)c1-c1nn[nH]n1" has a reported pIC50 of 7.50
